FYI, the data here is from paper PMC7070443.

Answer each item with its documented melting point.

Task item: Given the entry CCC(C)Oc1cc(/C=N/NC(=O)c2cnn3c2NC(c2ccccc2)C3)ccc1OC (centres unmarked) , report its measured melting point.
Reply: 130 to 131 °C

Task item: Given the entry Nc1c(C(=O)N/N=C/c2ccc(OC(F)F)c(OCc3ccccc3)c2)cnn1CC(O)c1ccccc1 (centres unmarked) , report its measured melting point.
Reply: 144 to 146 °C

Task item: Given the entry COc1ccc(/C=N/NC(=O)c2cnn3c2NC(c2ccccc2)C3)cc1OC (centres unmarked) , report its measured melting point.
Reply: 206 to 207 °C

Task item: Given the entry Nc1c(C(=O)N/N=C/c2ccc(OC(F)F)c(OC3CCCC3)c2)cnn1CC(O)c1ccccc1 (centres unmarked) , report its measured melting point.
Reply: 178 to 180 °C

Task item: Given the entry CCC(C)Oc1cc(/C=N/NC(=O)c2cnn(CC(O)c3ccccc3)c2N)ccc1OC (centres unmarked) , report its measured melting point.
Reply: 190 to 193 °C

* * *

Answer each item with its documented pIC50.
# System: human platelets
# PROTOCOL_DETAILS: Platelet aggregation inhibition (Born's method, thrombin-stimulated washed platelets)
# Type: cell-based
# RUN_PARAMETERS: Platelet, 0.1 U/mL thrombin, mean +/- SD, at least six experiments in duplicate
Keep it numeric: pIC50 is minus log10 of the concentration in mol/L.

Task item: Given the entry O=C(N/N=C/c1ccc(OC(F)F)c(OC2CCCC2)c1)c1cnn2c1NC(c1ccccc1)C2 (centres unmarked) , report its measured pIC50.
Reply: 4.15

Task item: Given the entry COc1cccc(/C=N/NC(=O)c2cnn(CC(O)c3ccccc3)c2N)c1OC1CCCC1 (centres unmarked) , report its measured pIC50.
Reply: 4.19

Task item: Given the entry COc1cc(/C=N/NC(=O)c2cnn(CC(O)c3ccccc3)c2N)ccc1OC(F)F (centres unmarked) , report its measured pIC50.
Reply: 5.12

Task item: Given the entry CCC(C)Oc1cc(/C=N/NC(=O)c2cnn3c2NC(c2ccccc2)C3)ccc1OC (centres unmarked) , report its measured pIC50.
Reply: 4.15

* * *

# System: human platelets
# PROTOCOL_DETAILS: ROS production inhibition in thrombin-stimulated washed platelets (DCFH-DA, flow cytometry)
# Type: cell-based
# RUN_PARAMETERS: Homo sapiens, Platelet, washed human platelets, 0.1 U/mL thrombin, DCFH-DA; mean +/- SD, at least six experiments in duplicate
pIC50: −log10 of the molar value.
Answer each item with its documented pIC50.

Task item: Given the entry COc1cc(/C=N/NC(=O)c2cnn(CC(O)c3ccccc3)c2N)cc(OC)c1OC (stereo not drawn) [4h] , report its measured pIC50.
Reply: < 3.70

Task item: Given the entry Nc1c(C(=O)N/N=C/c2ccc(OC(F)F)c(OCc3ccccc3)c2)cnn1CC(O)c1ccccc1 (stereo not drawn) [4g] , report its measured pIC50.
Reply: ~5.00

Task item: Given the entry COc1cc(/C=N/NC(=O)c2cnn(CC(O)c3ccccc3)c2N)ccc1OC(F)F (stereo not drawn) [4a] , report its measured pIC50.
Reply: ~5.00

Task item: Given the entry COc1cccc(/C=N/NC(=O)c2cnn3c2NC(c2ccccc2)C3)c1OCc1ccccc1 (stereo not drawn) [5j] , report its measured pIC50.
Reply: < 3.70

Task item: Given the entry COc1cccc(/C=N/NC(=O)c2cnn(CC(O)c3ccccc3)c2N)c1OCc1ccccc1 (stereo not drawn) [4j] , report its measured pIC50.
Reply: < 3.70

Task item: Given the entry Nc1c(C(=O)N/N=C/c2ccc(OC(F)F)c(Oc3ccccc3)c2)cnn1CC(O)c1ccccc1 (stereo not drawn) [4f] , report its measured pIC50.
Reply: ~5.00

Task item: Given the entry COc1ccc(/C=N/NC(=O)c2cnn3c2N(C(C)=O)C(c2ccccc2)C3)cc1OC1CCCC1 (stereo not drawn) [5k] , report its measured pIC50.
Reply: < 3.70

Task item: Given the entry COc1cccc(/C=N/NC(=O)c2cnn(CC(O)c3ccccc3)c2N)c1Oc1ccccc1 (stereo not drawn) [4i] , report its measured pIC50.
Reply: < 3.70

Task item: Given the entry COc1cc(/C=N/NC(=O)c2cnn3c2NC(c2ccccc2)C3)cc(OC)c1OC (stereo not drawn) [5h] , report its measured pIC50.
Reply: < 3.70
